targetOrTestSystem: T1, human GIPR (human), P48546
T1 chain: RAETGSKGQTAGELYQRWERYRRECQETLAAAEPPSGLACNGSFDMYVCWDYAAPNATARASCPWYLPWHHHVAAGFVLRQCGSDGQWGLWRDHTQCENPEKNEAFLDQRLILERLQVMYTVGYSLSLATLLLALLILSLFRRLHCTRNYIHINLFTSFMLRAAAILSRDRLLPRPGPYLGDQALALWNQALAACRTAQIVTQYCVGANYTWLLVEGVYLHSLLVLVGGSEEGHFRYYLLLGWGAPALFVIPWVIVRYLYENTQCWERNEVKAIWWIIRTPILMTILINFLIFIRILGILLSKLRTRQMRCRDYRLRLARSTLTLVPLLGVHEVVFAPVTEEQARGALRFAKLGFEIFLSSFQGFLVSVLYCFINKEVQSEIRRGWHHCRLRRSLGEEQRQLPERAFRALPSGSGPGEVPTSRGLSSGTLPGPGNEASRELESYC
Starred links: 1 amine or outer side, 2 acyl side, 3 side chain; linkers in the order of their positions; H or OH if unused. Non-standard residues stand in square brackets, D forms with d. Groups on a side chain read outwards from the residue. Primed or numbered codes have the meaning given here. No end group written: not given here. *: point of attachment. C20 diacid = O=C(O)CCCCCCCCCCCCCCCCCCC(=O)*; γGlu = O=C(O)[C@H](CCC(=O)[*:2])N[*:1]; NMeY = CN[C@@H](Cc1ccc(O)cc1)C(=O)O; Tridecanoyl = CCCCCCCCCCCCC(=O)*; αMeF = C[C@](N)(Cc1ccccc1)C(=O)O; Lauroyl = CCCCCCCCCCCC(=O)*; dIva = CC[C@@](C)(N)C(=O)O; Iva = CC[C@](C)(N)C(=O)O; PEG2′ = not defined here; PEG3′ = not defined here; Aib = CC(C)(N)C(=O)O
parameterMeasured: Agonist activity (EC50, M)
One number for each entry, in M.

Use these answered entries as a reference point.
{"columns": ["binder", "unitOfMeasure", "Agonist activity (EC50, M)"],
 "data": [
  ["Y[Aib]EGTFISDYSIALDRK([PEG3′-PEG3′-γGlu-C20 diacid])HQQDFVNWLLAQRPSSGAPPPS (not fully specified (C-terminus); ends and bridges not checked) [Compound 237]", "M", "1.6e-10"],
  ["[NMeY][Aib]EGTFISDYSIALDRIHQQD[αMeF]VNWLLAQRPSSGAPPPSR (not fully specified (N-terminus, C-terminus); ends and bridges not checked) [Compound 141]", "M", "1.9e-12"],
  ["Y[Aib]EGTFISDYSK([PEG(2)-C20 diacid])ALDRIAQQNFVNW[Iva]LAQR (ends and bridges not checked) [Compound 387]", "M", "5.9e-11"],
  ["Y[Aib]EGTFISDYSK([PEG(2)-Pal])ALDRIHQQDFVNWLLAQRPSSGAPPPSR (ends and bridges not checked) [Compound 177]", "M", "7.2e-12"],
  ["Y[Aib]EGTFISDYSK([PEG(2)-Lauroyl])[dIva]LDRIAQQDFVNWLLAQRPSSGAPPPS (ends and bridges not checked) [Compound 206]", "M", "2.1e-11"],
  ["Y[Aib]EGTFISDYSK([PEG2′-Lauroyl])ALDRIAQQSFVNW[Iva]LAQRPSSGAPPPS (not fully specified (C-terminus); ends and bridges not checked) [Compound 220]", "M", "5.3e-12"]
]}

Moving on to another binder below.
Any idea what its Agonist activity (EC50, M) is? The binder is Y[Aib]EGTFISDYSK([PEG2′-Tridecanoyl])ALDRIAQQDFVNWLLAQRPSSGAPPPSR (ends and bridges not checked) [Compound 185]
7e-12
